The reported measurements were obtained from the DeepSol protein solubility set.

Experiment: soluble on expression in E. coli; label from the status in PepcDB or PDB records
Recorded endpoint: soluble on expression in E. coli

Some solved entries appear below for comparison.
- Input sequence: "MHHHHHHSSGVDLGTENLYFQSMSTDSVISSESGNTYYRVVLIGEQGVGKSTLANIFAGVHDSMDSDCEVLGEDTYERTLMVDGESATIILLDMWENKGENEWLHDHCMQVGDAYLIVYSITDRASFEKASELRIQLRRARQTEDIPIILVGNKSDLVRCREVSVSEGRACAVVFDCKFIETSAAVQHNVKELFEGIVRQVRLRRDSKEKN"
  Reported value: "soluble"
- Input sequence: "MSLKQLVVKIETDNGIIGWGEAQSPVSPNTTATIIKDIVEPLTIGKDIYDVESIWHNNYSAKRERGHYTGFYIDAICGVDIAIWDAIGKSLKMPTCKAMGGAHRKSVALYNGIGGTEPEEVADQAEWSVSKGYKFVKMHLKETLEKDIEIARKVRERVGDSIGIMIDVHMGFDTFNVTKLGKELEKLNLLWLESPSDPTDIPGLCEISRSLDIPIANGEWTRTKYEMREIFEKRAYDISMPDIARTGLTGGKQIASIAQLYNIPIAPHVGGGGIVSVASTLQFSLNTPNFLIMEHSEQGHAVKAMILSESFDAENGQYSLPNKPGLGIDVDENKLEKYKINPSEGHHHHHH"
  Reported value: "soluble"
- Input sequence: "MSLAEVGSKSVLFVCLGNICRSPIAEAVFRKLVTDEKVSDNWAIDSSAVSDWNVGRPPDPRAVSCLRNHGISTAHKARQITKEDFATFDYILCMDESNLRDLNRKSNQVKNCKAKIELLGSYDPQKQLIIEDPYYGNDSDFEVVYQQCLRCCKAFLEKTYEGHHHHHH"
  Reported value: "soluble"
- Input sequence: "TKDWKWKLSFNATTYKNKITSLPAEEMWSGNKKWVKGGSLYDFYLVEWAGVNPENGNPTWYRYNTNGEKITTEDYSSTTPDDKVKCGNSLPDWTGGLQSDLSFKDFTLSFLFSYSIGGKIYNGDKVSLMSQGPTGTGWSVDMLDRWTPENPYTDVPRLTTSPKSSWTNSSNRFLVDRSYLRLKNITFSYNLPKSLLNTLTLKDASIFFQAENMLTLAKQQGLDPEQTFGGSTYYRYPAMKTISFGINVKL"
  Reported value: "not soluble"

**Q:** Please give the measured soluble on expression in E. coli for this sequence: MGSDKIHHHHHHAAQARLDKARAMYENNEFFGAKNEIDSIRALYPKEVKVLKQGLTLMRQVEVKEAERNIAFCDSLLPIKLEEVEGLKKGFAFEKDSVYEEIGNYIWKQQTIERNVQRCYVRCGVNEEGEMYLASVYYGGRPIEHTGIKLSLKDGQFAETASIPYDGGLNYRFKDMGSTTEVVTYKGEHCVDAVKFIYDNEKERIKVEYTGGKPYIIYMADADKKAIVNTFNLATVLSDIKSMNTLKEKSEKKIAYLKNKLEE
**A:** not soluble

**Q:** Name the recorded soluble on expression in E. coli for MEIFPAIDLKEGRCVRLYQGEFSKETVMNEDPVAQAIIFEKFGAKRLHIVDLDGAVAGESLNLSVIERICKAVRIPVQVGGGIRSLVAVEKLFSVGVDKVILGTAALYDKTFLEEAVLLYKEKIIVGIDAKNGFVATRGWLDVSEISYIDLAKQMEKIGVQTIVFTDISKDGTLAGPNIEQLELLQKSVAIRLIASGGVASIQDVKKLNDMNIYGVIIGKALYEKTIDLEEVVEVTKLC .
**A:** not soluble

====

Experiment: soluble on expression in E. coli; label from the status in PepcDB or PDB records
Recorded endpoint: soluble on expression in E. coli

- Input sequence: "MGSDKIHHHHHHMSIHPALESVGQLFGANLIFRVPRYQRYYAWDAEQIGDFLADLELCLKARAGGNRREHFFGGLVTVRTDVEGSSRQNMEVIDGQQRLASFSMLAAQLRNAAVQLAESVDAAVPDNPKEFLLEFAKTLKAEFERYKDKIKLQVVEIDRLELSKPDLIFFKDLVEGRNPTPSRMSHRLLKQAWDRIGAKLAQIVASENTDVEKAQALSLVDTVMEEDWNPHPHDH"
  Recorded endpoint: "soluble on expression in E. coli"
  Reported value: "not soluble"
- Input sequence: "MGSDKIHHHHHHMVKLKPKGPFTRIPRATTIFGAISNAIRLLYGRKEVEKFIAGFINDDAKITSAFPYDGETYFLPKPLSVDLVVKTLFETKKEDVKKVKKKDYIPLESFEKALRLEEFEVKELPYKVIELPKVSLDRVSNDSSLYFWDLVTFKENSGLYFLYDGSNKLFEKYIVPAMRLLEDQGIGGKGTWGYGLFEVEIEELEIEEPRENSYVTLSPFVPENETSLILWKIVKLGGWSQGKRRPKIPMVVEGSLSREDRGKMITLDLSLSYPVYVYARSFLVRASLPEEAVGHV"
  Recorded endpoint: "soluble on expression in E. coli"
  Reported value: "not soluble"
- Input sequence: "MKTFPVSIVTPDGPVYEKEVEMVSVKAESGEMGILPGHIPTVAPLKISAVRLKNGGHTDYVAVSGGFIEVRPDKVTVLSSSAEEANHIDIHRANEAKRRAEQRMQDKQAHVDFKRAEMALQRAVNRLNVSDMK"
  Recorded endpoint: "soluble on expression in E. coli"
  Reported value: "not soluble"

====

Experiment: soluble on expression in E. coli; label from the status in PepcDB or PDB records
Recorded endpoint: soluble on expression in E. coli

Worked cases, answers included:
- Input sequence: "MWRIELKHAVNWELKMKFFVLPELPTPDVVESGVWRRAIVLDGRAVAVMAYPESERTIVVEGNFENREWEAVRRKLVEYLGLQNPEELYRFMDGDEKLRMLKNRFYGFGRAGLMSMSVFEGIAKAIIQQQISFVVAEKLAAKIVGRFGDEVEWNGLKFYGFPTQEAILKAGVEGLRECGLSRRKAELIVEIAKEENLEELKEWGEEEAYEYLTSFKGIGRWTAELVLSIALGKNVFPADDLGVRRAVSRLYFNGEIQSAEKVREIARERFGRFARDILFYLFLYDRFFSKKTELV"
  soluble on expression in E. coli: "soluble"
- Input sequence: "MAGSSEEAPDYGRGVVIMDDWPGYDLNLFTYPQHYYGDLEYVLIPHGIIVDRIERLAKDIMKDIGYSDIMVLCVLKGGYKFCADLVEHLKNISRNSDRFVSMKVDFIRLKSYRNDQSMGEMQIIGGDDLSTLAGKNVLIVEDVVGTGRTMKALLSNIEKYKPNMIKVASLLVKRTSRSDGFRPDYAGFEIPNLFVVGYALDYNEYFRDLNHICVINEHGKEKYRV"
  soluble on expression in E. coli: "soluble"
- Input sequence: "MILNILRLPHADEPTTSQSVQDYPLVHFSPRRHQKFRTIISVGDSDVIKDSSLTDEELYNIIHASPIARKSSTVSSTDSGYLGSSGASSSCVRSREGSTVSSTITVERTRRGGSTASSEPDSVADSEGAGSYSSFSSIASTASRMLGRAADCLVLMTKRNGWSGDAGSPSDEKGSSLDAQSWTTAIQSALMPVTPQSSVVGGKRIDKLKVPTEGKTRPPY"
  soluble on expression in E. coli: "not soluble"
- Input sequence: "LHRYSEVLGLPVICTADGKNLGTIKDIIFCPKEKSVVAFLIECKGYNRRKKVVFASDVLSLGRDALIVNDADDVRDLKKVLHRPEFKDKGDILGLPIYTKNGEDLGTAKDVLFDLKHGKIDGIEVSDGLLQDIVKGRSVLPLIGKVEFGEENILVDNEAVEEMMETGGGIKNLIEGNKKVQRKG"
  soluble on expression in E. coli: "not soluble"
- Input sequence: "MSLSYLTEEKLTIVGAAGMIGSNMAQTAAMMRLTPNLCLYDPFAVGLEGVAEEIRHCGFEGLNLTFTSDIKEALTDAKYIVSSGGAPRKEGMTREDLLKGNAEIAAQLGKDIKSYCPDCKHVIIIFNPADITGLVTLIYSGLKPSQVTTLAGLDSTRLQSELAKHFGIKQSLVTNTRTYGGHGEQMAVFASTAKVNGTPLTDLIGTDKLTNEQWAELKQRVVKGGANIIKLRGRSSFQSPSYVSIEMIRAAMGGEAFRWPAGCYVNVPGFEHIMMAMETTITKDGVKHSDINQLGNEAERAALKESYSHLAKLRDEVIAMGIIPAIADWKTVNPNEGHHHHHH"
  soluble on expression in E. coli: "soluble"
- Input sequence: "MNDHTAAIAAHFDQLAPNLDRWRRRNRTYYRDLEKLHRFWIPTGSRVLQVGSGLGDLLATVEPSFGIGIDVSPQAVAIAQQRHPQLQFHCLAAEELTPEAIGNPEPFDAIILTGVLSYLTDIQVVLEQLQAFCHPRTRLILGFHNFLWQPLLTAAEKVGQRSPQPPESWLGMQDVLNLLTLTGYEPIKQGLEHHHHHH"
  soluble on expression in E. coli: "soluble"
- Input sequence: "MGSDKIHHHHHHMMEYWIRRALEVVKTPFLLFDLSVVEKKYLEMKAALKKADIYYAVKANSHPRIISLLARLGSNFDVASKGEIEKLLALGVDGKRMSFGNTIKREEDIAFAYKNGIRLFAVDSEMEVEKVAINAPGSFVFVRVETDGADADWPLSRKFGTNPEHALQLLSYASKMKLIPAGLSFHVGSQNLNPESWKKAIEIAGRVFKKAMRSGLNLFLLNVGGGFPVQHTKPIPSMEEIGKAIEEAIDENLWFVHNLKVIAEPGRYMVGEAGWLVTKVLLKSERSGEKWVYIDAGVFHGLAETIQNFEYEIRVLGKEREELEEYHLAGPTCDSVDVIYDRIFLPKSITLNDLVCFINAGAYTVEYNTRFNGIEPPKMVFIEELTEISIEEKIKTRVLD"
  soluble on expression in E. coli: "not soluble"
- Input sequence: "LSSPADSYNEGVKLQPQEISPPPTANLDRSNDKVYENVTGLVKAVIEMSSKIQPAPPEEYVPMVKEVGLALRTLLATVDETIPLLPASTHREIEMAQKLLNSDLGELINKMKLAQQYVMTSLQQEYKKQMLTAAHALAVDAKNLLDVIDQARLKMLGQTRPH"
  soluble on expression in E. coli: "soluble"
- Input sequence: "MDSPIINEQFWDALFFNGTMPWDRSQTPNELKHYLKRIADKTHSVFIPGCGAAYEVSHFVDCGHDVIAMDYSAEAVNLAKSQLGQHQDKVMLGDVFNADFSREFDVIYERAFLAALPREIWGDYFAMIERLLPSNGLLVGYFVISDDYRSRFPPFCLRSGEIEQKLEANFHLIESTPVTDSVDVFKGKEQWMVWQKLEHHHHHH"
  soluble on expression in E. coli: "not soluble"
- Input sequence: "MGSDKIHHHHHHMKIELENCQKSLTLKDFEEIESKLGYALPERLKEFYLQYNGGSTKQTASINKYQEVEIEDFFPFKYNKDFKNDPRYTAEGETLELRKAGAISDSILIFAMESTDEGRITIDLVNGKIYLYPIVGMQDVIFNFEEPRLVANSIDDFFDNLVVLDGHKAIPAIEEIEEGQTETAGVMPELSDCSASLTKEDIKNFEVELNVKIPAGMKNFYLKFNGGMPSPYCYQPQDEDLDRVEINAFFPIKERTNAFETIEVIAKGIWSRNLMPCNLLPFAMDSGGNYYALNLKNKKIYYYLTDEWDENASREYNFETNTRYIAQSFNYFINHFIEEEE"
  soluble on expression in E. coli: "not soluble"

**Q:** Would you mind telling me what soluble on expression in E. coli value was observed for GQDSEVLLDGVAKLSSHNNVIEDAIEGVDLTLKGKSEPNKPPAEIGVEYDRQSVRSDIENFVSAYNSFYQTSQALSSVDPTTGQKGPLAGDSTVRSADSRLKAVFSSRIDQAPENLKSLTEFGITTTRQGTLEINYDMLDRQLNNNFNELEKFFGGNTGFAKRIEDAIHGITGITGSIRTREKSLTEQNYRLNDDQAALDRRMEGLEKRTHAKFTAMQDATGKMQGQLGALMSALG ?
**A:** not soluble
